// reported pEC50 for each item listed
- Tested on: CEM cells HIV-1 protection, formazan growth assay
- ASSAY PROCEDURE: NCI AIDS Antiviral Assay
pEC50: −log10 of the molar value.

Example entries and their recorded answers appear below.
Could you please provide reported pEC50 for C=C(C)C12CC3CC/C(=N/O)C(C1)C3(N1CCOCC1)C/C2=N/O (stereo not given) ? Thanks!
< 3.70

Output pEC50 of CCc1cc(-c2ccc(OC)cc2)c(C#N)c(=S)n1C1OC(CO)C(O)C(O)C1O (stereo not given)
< 3.70

Hello, please tell me recorded pEC50 for this one: NCS(=O)(=O)O
< 3.70

New cases:
Specify reported pEC50 for the compound shown: O=C(/C=C/c1ccsc1)c1cccs1
< 3.70

Recall and state the measured pEC50 for O=C1C(SCCO)=C(SCCO)C(=O)c2[nH]cnc21 .
< 3.36

Name the recorded pEC50 of the item Cc1cc([N+](=O)[O-])c(C)c2c1[nH]c1ccc(O)cc12 in your answer.
< 4.41

----------
- System: CEM cells HIV-1 protection, formazan growth assay
- ASSAY PROCEDURE: NCI AIDS Antiviral Assay
Some compounds, each annotated with its measured EC50.

Please look at CN(C)C(=S)/N=c1\ss/c(=N/C(=S)N(C)C)n1-c1ccc([N+](=O)[O-])cc1 and tell me its recorded EC50 on CEM cells HIV-1 protection, formazan growth assay.
> 200 µM

Give CEM cells HIV-1 protection, formazan growth assay EC50 for the following compound: COc1cc([N+](=O)[O-])c(S(=O)(=O)O)cc1-n1nc(C(=O)Nc2ccccc2)n[n+]1-c1cc(S(=O)(=O)[O-])c([N+](=O)[O-])cc1OC
> 372 µM

Report measured EC50 on CEM cells HIV-1 protection, formazan growth assay; entry: COC(=O)c1ccc2c(c1)CC1(C2)Cc2ccccc2C1=O (centres undefined)
> 200 µM

Under CEM cells HIV-1 protection, formazan growth assay, report EC50 for CO/N=C\c1c2c(O)c3c(O)c(C)c4c(c3c1O)C(=O)C(C)(O/C=C\C(OC)C(C)C(OC(C)=O)C(C)C(O)C(C)C(O)C(C)/C=C\C=C(\C)C(=O)N2)O4 (centres undefined)
> 151 µM

Report EC50 from CEM cells HIV-1 protection, formazan growth assay testing of CC(NC(=O)C(Cc1ccc(OC(=O)c2ccccc2)cc1)NC(=O)OC(C)(C)C)C(=O)NCC(=O)NC(Cc1ccccc1)NC(=O)OCc1ccccc1 (centres undefined)
> 200 µM

Recall the reported EC50 of O=c1[nH]n(Cc2ccccc2Cl)c2ccc([N+](=O)[O-])cc12 when tested on CEM cells HIV-1 protection, formazan growth assay.
> 200 µM

Next:
Recall the reported EC50 of O=C(c1ccccc1)N1C(=O)N(c2ccccc2)C(=Nc2ccccc2)C1=Nc1ccccc1 on CEM cells HIV-1 protection, formazan growth assay and write it down.
> 200 µM

Determine reported EC50 for O=C(O)CCC(=O)NCCNC(=O)CCC(=O)O ; test system: CEM cells HIV-1 protection, formazan growth assay.
> 955 µM

Please look at Cc1ccc(NC(=O)CC2SC(=Nc3cccc(Cl)c3C)NC2=O)cc1 (centres undefined) and tell me its recorded EC50 on CEM cells HIV-1 protection, formazan growth assay.
> 240 µM

----------
- Test system: CEM cells HIV-1 protection, formazan growth assay
- ASSAY PROCEDURE: NCI AIDS Antiviral Assay
- TEST CONDITIONS: measured here: growth of uninfected CEM cells
- Procedure: The ability of compounds to protect human CEM cells from HIV-1 infection is measured as a screen for new compounds capable of inhibiting the HIV virus. Five concentrations of drug were tested on uninfected and infected cells and cell growth was measured using a soluble formazan assay. […] Compounds that provided at least 50% protection were retested. Compounds that provided at least 50% protection on retest were listed as moderately active. […]
OBSERVED PROPERTY: log10(IC50) (log10 of the value in µM)
In our notation, the value equals log10 of IC50 in µM.

The following molecules have reported results that may help.
Determine its reported log10(IC50): Cc1cc2c(cc1-c1cc3c(cc1C)C(C(C)C)=C(O)C(=O)/C3=C\Nc1ccccn1)/C(=C/Nc1ccccn1)C(=O)C(O)=C2C(C)C
1.66

Give the value of log10(IC50) reported for the following: COc1ccc(C2C=C(c3ccc(C)cc3)N(c3ccc(OC)cc3[N+](=O)[O-])C3C(=O)OC(=O)C23)c(OC)c1 (stereo not given)
1.50

State, in one line, measured log10(IC50) of N#CC12C3C4CC5C6C4C1C6C(O)(C53)N2Cc1ccccc1 (stereo not given)
2.41

Please indicate log10(IC50) recorded for Cc1ccc(S(=O)(=O)N/N=C(\C(=O)Nc2cccc([N+](=O)[O-])c2)c2nc3ccc([N+](=O)[O-])cc3[nH]c2=O)cc1
2.06

// fetch log10(IC50) given entry CC1OCC2OC(C)OC(C3C4=C(CC(C)(C)CC4=O)OC4=C3C(=O)CC(C)(C)C4)C2O1 (stereo not given)
2.74

More entries:
Return the recorded log10(IC50) value; entry: CC(=O)C(=Cc1ccc(F)cc1)C(C)=O
1.58

In one line, give reported log10(IC50) of the entry CC(C)(C)c1cc(C(c2ccccc2)c2ccccc2)cc(C(C)(C)C)c1O .
1.52

Please list log10(IC50) recorded for the molecule CC(=O)NC(C=O)C(O[C@H](C)C(=O)NC(C)C(=O)NC(CCC(N)=O)C(=O)OCc1ccccc1)C(O)C(O)COC(=O)CCNc1c2ccccc2nc2cccc([N+](=O)[O-])c12 (stereo not given in full)
1.18

Specify reported log10(IC50) for the molecule shown: Oc1cccc2ccc(Br)nc12
2.25
